Provenance of the data: patent US8013006B2

system: HCV replicon; assay: microbe, parasite or virus in culture; type: cell-based; conditions: Replicon IC50 values are determined by firefly luciferase signal; bicistronic replicon, 2 days; read-out: Replicon IC5Os
pIC50: −log10 of the molar value.
Each entry below lists one item and its recorded pIC50 value.
ENDPOINT LABEL: pIC50

>>> result("CCn1c(-c2cccc(NC(=O)OCCCCl)c2)c(C#N)c2ccc(OC(C)C)cc21")
"5.70 to 6.30"
>>> result("CCn1c(-c2cccc(NC(=O)OC(C)C)c2)c(C#N)c2ccc(OC(C)C)cc21")
"5.70 to 6.30"
>>> result("CCn1c(-c2cccc(NC(=O)Oc3ccc(OC)cc3)c2)c(C#N)c2ccc(OC)cc21")
"< 5.70"
>>> result("CCn1c(C#Cc2cccc(F)c2)c(C#N)c2ccc(OC)cc21")
"5.70 to 6.30"
>>> result("CCn1c(-c2ccc(NC(=O)OCCCCl)cc2)c(C#N)c2ccc(OC)cc21")
"< 5.70"
>>> result("CCS(=O)(=O)Nc1ccc(-c2cc3cc(OC)ccc3n2C)cc1")
"5.70 to 6.30"
>>> result("CCn1c(-c2ccoc2)c(C#N)c2ccc(OC)cc21")
"< 5.70"
>>> result("CCn1c(-c2ccc(NS(C)(=O)=O)cc2)c(C#N)c2cc(F)ccc21")
"5.70 to 6.30"
>>> result("CCCS(=O)(=O)Nc1ccc(-c2c(C#N)c3cc(N4CCOCC4)ccc3n2CC)cc1")
"5.70 to 6.30"
>>> result("CCn1c(-c2ccc(NC(=O)OCc3ccccc3)cc2)c(C#N)c2ccc(C(F)(F)F)cc21")
"5.70 to 6.30"
>>> result("CCn1c(-c2cccc(NC(=O)OCCOC)c2)c(C#N)c2ccc(OC(C)C)cc21")
"5.70 to 6.30"
>>> result("CCn1c(-c2cn(Cc3ccccc3)cn2)c(C#N)c2ccc(OC)cc21")
"< 5.70"
>>> result("CCS(=O)(=O)Nc1ccc(-c2cc3c(OC)cccc3n2C)cc1")
"5.70 to 6.30"
>>> result("CCn1c(-c2ccc(N)cc2)c(C#N)c2cc(Cl)ccc21")
"5.70 to 6.30"
>>> result("CCn1c(C#Cc2ccc(N)cc2)c(C#N)c2cc(OC)ccc21")
"5.70 to 6.30"
>>> result("COc1ccc2c(C#N)c(-c3cccc(NC(=O)OCc4ccccc4)c3)n(C(C)C)c2c1")
"< 5.70"
>>> result("CCC(=O)Nc1ccc(C#Cc2c(C#N)c3ccc(O)cc3n2CC)cc1")
"5.70 to 6.30"
>>> result("COc1ccc(-n2cc(C#N)c3ccccc32)cc1")
"< 5.70"
>>> result("COc1ccc(C#Cc2c(C#N)c3ccc(OC)cc3n2C)cc1")
"< 5.70"
>>> result("CCCS(=O)(=O)N1CCc2ccc(-c3c(C#N)c4ccc(OC)cc4n3CC)cc21")
"5.70 to 6.30"
>>> result("CCn1c(-c2ccc(C(=O)Nc3ccccc3)cc2)c(C#N)c2ccc(OC)cc21")
"< 5.70"
>>> result("CCn1c(-c2cccc(NS(=O)(=O)CC)c2)c(C#N)c2ccc(OC)cc21")
"< 5.70"
>>> result("CCOC(=O)Nc1cccc(-c2c(C#N)c3ccc(OCCCn4cncn4)cc3n2CC)c1")
"5.70 to 6.30"
>>> result("CCOC(=O)Nc1cccc(-c2c(C#N)c3ccc(OCCCN4CCSCC4)cc3n2CC)c1")
"5.70 to 6.30"
